The origin of these recorded values is PubChem BioAssay.

experiment.notes: inhibition of endothelial tube formation, primary screen, imaging, VEGF stimulated, CD31 staining, tube area, NPC library (AID 1117340)
test.parameters: VEGF-stimulated ADSC/ECFC co-culture, at 10 µM, stronger effect = higher value
Each entry below carries its recorded tube area decrease.
Your answer is read as %, so omit the unit and give the number.

Previously resolved entries follow.
Reported tube area decrease, compound CC(=O)OCC1=C(C(=O)O)N2C(=O)[C@@H](N)[C@H]2SC1 : ____
10.2

Which tube area decrease value is on record for Oc1cc(Cl)ccc1Oc1ccc(Cl)cc1Cl ?
104

Fill blank: measured tube area decrease of the compound CCOC(=O)c1ncn2c1CN(C)C(=O)c1c(I)cccc1-2 is ____.
-12.8

I would be grateful if you could share the reported tube area decrease for O=c1oc2ccccc2c(O)c1Cc1c(O)c2ccccc2oc1=O .
26

Name the reported tube area decrease value associated with the compound COc1ccc(C(CN(C)C)C2(O)CCCCC2)cc1 (configuration not stated)
1.5

Next:
Item under review: CCCOC(=O)c1cncn1C(C)c1ccccc1 (configuration not stated) . Reported tube area decrease?
-7.5

Need tube area decrease of COC(C)(C)CCCC(C)C/C=C/C(C)=C/C(=O)OC(C)C (configuration not stated) , thanks.
2.7

Query: tube area decrease; subject: C1CN(P2(N3CC3)=NP(N3CC3)(N3CC3)=NP(N3CC3)(N3CC3)=N2)CCO1 (configuration not stated)
86.7

What does the data say about its tube area decrease? Entry: C[N+]1(C)[C@@H]2CC[C@H]1CC(OC(=O)C(CO)c1ccccc1)C2 (some centres not stated)
-7.8

May I ask what tube area decrease has been recorded for O=C(O)C(Cl)Cl ?
-7.2

Name the reported tube area decrease value associated with the compound CN1C(=O)CCS(=O)(=O)C1c1ccc(Cl)cc1 (configuration not stated)
3.9

So what does the record say about tube area decrease for CN1C[C@@H](NS(=O)(=O)N(C)C)C[C@@H]2c3cccc4c3c(cn4C)C[C@H]21 ?
-8.8
